- ASSAY TARGET: Sulfhydryl oxidase 1 (Homo sapiens)
- ASSAY PROCEDURE: QSOX1 enzyme inhibitors, primary screen, biochemical, HyperBlu H2O2 luminescence, HTS (AID 1347420); also: values above 100% were filed as inconclusive
- EXPERIMENTAL SETUP: recombinant QSOX1, HyperBlu H2O2 luminescence, at 12.5 µM, active compounds read high; active = any value above zero unless noted
The whole screen tested about 1,300 compounds, of which about 980 (75%) were called active. Inconclusive results (about 4%) are left out. Some of the results follow.
METRIC: inhibition

COMPOUND	VALUE MEASURED
CN1CCC(c2c[nH]c3ccc(O)cc23)CC1	84% (active)
CC(C)N(CCC(C(N)=O)(c1ccccc1)c1ccccn1)C(C)C (centres undefined)	39.4% [setting not given] (active)

**Q:** Form field: reported inhibition of Oc1ccc2c3c1O[C@H]1c4oc5ccccc5c4C[C@@]4(O)C(C2)N(CC2CC2)CCC314 (some centres undefined)
**A:** 18.4% [setting not given] (active)

**Q:** Form field: reported inhibition of Cc1cccc(C)c1NC1=NCCCS1
**A:** 12.9% [setting not given] (active)

* * *

- ASSAY TARGET: Sulfhydryl oxidase 1 (Homo sapiens) (UniProt O00391)
- Sequence (O00391 whole entry, looked up): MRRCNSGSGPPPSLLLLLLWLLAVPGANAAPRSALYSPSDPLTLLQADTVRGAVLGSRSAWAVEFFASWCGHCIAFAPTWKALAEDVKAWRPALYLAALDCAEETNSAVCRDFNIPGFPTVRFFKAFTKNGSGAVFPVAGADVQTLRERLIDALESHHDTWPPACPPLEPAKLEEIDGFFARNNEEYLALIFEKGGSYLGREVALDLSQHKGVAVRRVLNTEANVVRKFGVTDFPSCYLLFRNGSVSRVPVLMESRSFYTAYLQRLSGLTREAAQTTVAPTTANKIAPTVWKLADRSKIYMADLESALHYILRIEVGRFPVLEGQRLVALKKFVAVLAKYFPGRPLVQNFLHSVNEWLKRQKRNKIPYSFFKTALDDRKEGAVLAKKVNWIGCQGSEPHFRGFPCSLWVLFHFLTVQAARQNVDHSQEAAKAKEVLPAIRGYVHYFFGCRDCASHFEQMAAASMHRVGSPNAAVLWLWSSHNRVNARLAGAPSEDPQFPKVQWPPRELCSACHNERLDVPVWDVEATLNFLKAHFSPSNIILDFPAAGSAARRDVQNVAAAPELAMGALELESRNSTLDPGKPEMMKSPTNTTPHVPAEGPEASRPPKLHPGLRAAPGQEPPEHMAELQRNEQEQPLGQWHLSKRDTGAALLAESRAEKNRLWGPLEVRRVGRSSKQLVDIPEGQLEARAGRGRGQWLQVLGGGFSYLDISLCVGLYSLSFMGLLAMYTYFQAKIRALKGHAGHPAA
- ASSAY PROCEDURE: QSOX1 enzyme inhibitors, primary screen, biochemical, HyperBlu H2O2 luminescence, HTS (AID 1347420); also: values above 100% were filed as inconclusive
- EXPERIMENTAL SETUP: recombinant QSOX1, HyperBlu H2O2 luminescence, at 12.5 µM, active compounds read high; active = any value above zero unless noted
Among all 1,300 compounds or so, about 980 (75%) were called active. Another 4% or so got no clear call; they are omitted. The list shows a part of the results.
Entries and their inhibition

Some solved cases for reference:
MOLECULE	METRIC	VALUE MEASURED
O=C1NCN(c2ccccc2)C12CCN(CC1COc3ccccc3O1)CC2 (centres undefined)	inhibition	5.7% (active)
O=S1(=O)N(CCN2CC=C(c3c[nH]c4cc(F)ccc34)CC2)c2cccc3c2N1CCC3	inhibition	25.1% (active)
CC(N)c1cccc(Cl)c1Cl (centres undefined)	inhibition	-1% (inactive)

**Q:** Form field: reported inhibition of NCC(CP(=O)(O)O)c1ccc(Cl)cc1 (centres undefined)
**A:** -10.6% (inactive)

**Q:** Form field: reported inhibition of COc1ccc2c(c1)c(CCN1CCOCC1)c(C)n2C(=O)c1cccc(Cl)c1Cl
**A:** -15.7% (inactive)

**Q:** Form field: reported inhibition of NC(CP(=O)(O)O)C(=O)O (centres undefined)
**A:** 2.2% (active)

**Q:** Form field: reported inhibition of Cc1ncc(CNC(=O)N(CCCl)N=O)c(N)n1
**A:** 13.2% (active)

**Q:** Form field: reported inhibition of CN1C[C@H](CNC(=O)OCc2ccccc2)C[C@@H]2c3cccc4c3c(cn4C)C[C@H]21
**A:** 6.1% [setting not given] (active)

**Q:** Form field: reported inhibition of Cc1[nH]c2ccc(O)cc2c1CCN
**A:** 79.3% [setting not given] (active)

**Q:** Form field: reported inhibition of CCCCC/C=C\C/C=C\C/C=C\C/C=C\CCCC(=O)NCC(=O)O
**A:** 3.4% (active)

**Q:** Form field: reported inhibition of CC(C)NP(=O)(NC(C)C)OP(=O)(NC(C)C)NC(C)C
**A:** -1.6% (inactive)

**Q:** Form field: reported inhibition of C[C@H]1C2Cc3ccc(O)cc3C1(C)CCN2CC1CC1 (some centres undefined)
**A:** 26.8% [setting not given] (active)

**Q:** Form field: reported inhibition of c1ccc(C2(c3ccccc3)CC2C2=NCCN2)cc1 (centres undefined)
**A:** 6.4% (active)

**Q:** Form field: reported inhibition of CC(=O)OCC1=C(C(=O)O)N2C(=O)[C@@H](NC(=O)CCC[C@@H](N)C(=O)O)[C@H]2SC1
**A:** -10.7% (inactive)

**Q:** Form field: reported inhibition of C[Se]C[C@H](N)C(=O)O
**A:** -0.1% (inactive)

**Q:** Form field: reported inhibition of NC(Cc1ccc(N(CCCl)CCCl)cc1)C(=O)O (centres undefined)
**A:** 85.8% (active)

**Q:** Form field: reported inhibition of CCNC(=O)[C@H]1O[C@@H](n2cnc3c(N)ncnc32)C(O)[C@H]1O (some centres undefined)
**A:** 1.2% (active)

**Q:** Form field: reported inhibition of NC1CC1c1ccccc1 (centres undefined)
**A:** 14.9% (active)

**Q:** Form field: reported inhibition of OCc1cnc[nH]1
**A:** 3.5% (active)

* * *

- ASSAY TARGET: Sulfhydryl oxidase 1 (Homo sapiens) (UniProt O00391)
- ASSAY PROCEDURE: QSOX1 enzyme inhibitors, primary screen, biochemical, HyperBlu H2O2 luminescence, HTS (AID 1347420); also: values above 100% were filed as inconclusive
- EXPERIMENTAL SETUP: recombinant QSOX1, HyperBlu H2O2 luminescence, at 12.5 µM, active compounds read high; active = any value above zero unless noted
About 980 (75%) of roughly 1,300 compounds were called active. Not shown: some 4% with an inconclusive outcome. This is one part of the list.
METRIC: inhibition

MOLECULE	inhibition
O=C(O)c1cc[c]([Hg][Cl])cc1	1% (active)
Cc1c(C(=O)c2cccc3ccccc23)c2cccc3c2n1[C@H](CN1CCOCC1)CO3	-2.1% [setting not given] (inactive)
O=C(Cc1ccc(Cl)c(Cl)c1)N1CCCCC1CN1CCCC1 (centres undefined)	2.1% (active)
CCCN(CCC)C1CCc2cccc(O)c2C1 (centres undefined)	5.5% (active)
Cc1o[nH]c(=O)c1CC(N)C(=O)O (centres undefined)	11.9% (active)

**Q:** Form field: reported inhibition of CCCN(CCC)[C@H]1CCc2c(F)ccc(O)c2C1
**A:** 17.9% (active)

**Q:** Form field: reported inhibition of CN1CCc2cc(O)cc3c2[C@H]1Cc1ccc(O)c(O)c1-3
**A:** 94% (active)

**Q:** Form field: reported inhibition of NC(=O)CN1CCCC1=O
**A:** 1% [setting not given] (active)

**Q:** Form field: reported inhibition of COC(=O)N1CCN(C(=O)Cc2ccc(Cl)c(Cl)c2)C(CN2CCCC2)C1 (centres undefined)
**A:** 13.5% (active)

* * *

- ASSAY TARGET: Sulfhydryl oxidase 1 (Homo sapiens)
- ASSAY PROCEDURE: QSOX1 enzyme inhibitors, primary screen, biochemical, HyperBlu H2O2 luminescence, HTS (AID 1347420); also: values above 100% were filed as inconclusive
- EXPERIMENTAL SETUP: recombinant QSOX1, HyperBlu H2O2 luminescence, at 12.5 µM, active compounds read high; active = any value above zero unless noted
The whole screen tested about 1,300 compounds, of which about 980 (75%) were called active. Roughly 4% stayed inconclusive and do not appear here. This is one part of the list.
Tick one outcome: 1 (active), -1 (inactive)

Study these solved cases before continuing.
MOLECULE	CATEGORY LABEL
C=CCN1CC[C@]23c4c5ccc(O)c4O[C@@H]2/C(=N/N=C2\CC[C@@]4(O)C6Cc7ccc(O)c8c7[C@@]4(CCN6CC=C)[C@@H]2O8)CC[C@@]3(O)C1C5	1
NCc1cc(=O)[nH]o1	1
C=CCN1CCC23c4c5ccc(O)c4O[C@H]2C(=O)CC[C@@]3(O)C1C5 (stereo partly drawn)	1
Fc1ccc(C(OCCN2CCN(CCCc3ccccc3)CC2)c2ccc(F)cc2)cc1	1
CC(NC(C)(C)C)C(=O)c1cccc(Cl)c1 (stereo not drawn)	1
CC1=NN=C(c2ccc(N)cc2)c2cc3c(cc2C1)OCO3	1

**Q:** Hi, do you know how COC[C@H]1OC(=O)c2coc3c2[C@@]1(C)C1=C(C3=O)C2CCC(=O)[C@@]2(C)C[C@H]1OC(C)=O (stereo partly drawn) came out in this test?
**A:** 1

**Q:** Hi, do you know how CCCn1c(C)c(C(=O)c2ccc3ccccc3c2)c2ccccc21 came out in this test?
**A:** -1

**Q:** Hi, do you know how CC(O)(CS(=O)(=O)c1ccc(F)cc1)C(=O)Nc1ccc(C#N)c(C(F)(F)F)c1 (stereo not drawn) came out in this test?
**A:** 1

**Q:** Hi, do you know how COC(=O)C1=CCCN(C)C1 came out in this test?
**A:** 1

**Q:** Hi, do you know how O=C1C=CC(=O)C=C1 came out in this test?
**A:** 1

**Q:** Hi, do you know how C=CCN1CC[C@]23c4c5ccc(O)c4O[C@H]2/C(=N/NC(=O)c2ccccc2)CC[C@@]3(O)[C@H]1C5 came out in this test?
**A:** 1

* * *

- ASSAY TARGET: Sulfhydryl oxidase 1 (Homo sapiens) (UniProt O00391)
- ASSAY PROCEDURE: QSOX1 enzyme inhibitors, primary screen, biochemical, HyperBlu H2O2 luminescence, HTS (AID 1347420); also: values above 100% were filed as inconclusive
- EXPERIMENTAL SETUP: recombinant QSOX1, HyperBlu H2O2 luminescence, at 12.5 µM, active compounds read high; active = any value above zero unless noted
About 980 (75%) of roughly 1,300 compounds were called active. About 4% were inconclusive and are not listed. The list shows a part of the results.
Tick one outcome: true (1) (active), false (0) (inactive)

Study these solved cases before continuing.
MOLECULE	ASSAY TARGET	CATEGORY LABEL
CC(=O)[C@H]1CC[C@H]2[C@@H]3CC[C@H]4C[C@](C)(O)CC[C@]4(C)[C@H]3CC[C@]12C	Sulfhydryl oxidase 1 (Homo sapiens) (UniProt O00391)	true (1)
NCC(O)c1ccc(O)cc1 (stereo not drawn)	Sulfhydryl oxidase 1 (Homo sapiens) (UniProt O00391)	true (1)
NCCCP(=O)(O)O	Sulfhydryl oxidase 1 (Homo sapiens) (UniProt O00391)	false (0)
O=C(O)[C@@H]1CCN1	Sulfhydryl oxidase 1 (Homo sapiens) (UniProt O00391)	true (1)

Kindly consider the entry below.
**Q:** Hi, do you know how CCC1(C2=NCCN2)Cc2ccccc2O1 (stereo not drawn) came out in this test?
**A:** true (1)
